Biological target: T1, human GPC3-His protein (human, UniProt P51654 25-559)
T1 construct: Bought protein; also called human GPC3 protein; not shown: His tag
Test: ELISA, coated human GPC3, antibody 100 nM;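 note: antibodies bound to antigen-coated 96-well plates (1 µg/mL), 2 h at 37 °C, detected with HRP-labelled secondary antibody and TMB substrate, absorbance read at 450 nm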
The entries below are paired with their reported OD450 nm.

BINDER: F1.110.24 human-murine chimeric antibody (antibody, human IgG1, kappa, V domains shown) VH: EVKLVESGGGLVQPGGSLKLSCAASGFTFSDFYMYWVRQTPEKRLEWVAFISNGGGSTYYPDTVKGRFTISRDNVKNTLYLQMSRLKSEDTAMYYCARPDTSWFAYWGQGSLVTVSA VL: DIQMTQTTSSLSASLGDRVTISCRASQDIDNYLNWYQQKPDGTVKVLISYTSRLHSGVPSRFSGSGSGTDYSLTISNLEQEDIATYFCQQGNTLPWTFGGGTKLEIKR
OD450 nm: 0.62 OD450
//
BINDER: F1.3.9 human-murine chimeric antibody (antibody, human IgG1, kappa, V domains shown) VH: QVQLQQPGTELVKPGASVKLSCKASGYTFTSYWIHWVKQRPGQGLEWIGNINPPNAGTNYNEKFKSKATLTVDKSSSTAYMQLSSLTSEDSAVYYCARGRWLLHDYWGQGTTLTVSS VL: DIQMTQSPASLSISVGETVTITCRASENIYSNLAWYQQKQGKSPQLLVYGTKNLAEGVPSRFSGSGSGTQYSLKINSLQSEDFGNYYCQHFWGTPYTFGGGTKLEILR
OD450 nm: 2.07 OD450
//
BINDER: F1.9.19 human-murine chimeric antibody (antibody, human IgG1, kappa, V domains shown) VH: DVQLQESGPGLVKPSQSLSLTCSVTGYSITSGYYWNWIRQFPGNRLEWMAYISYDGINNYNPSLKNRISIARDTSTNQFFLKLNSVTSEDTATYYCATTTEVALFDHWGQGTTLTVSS VL: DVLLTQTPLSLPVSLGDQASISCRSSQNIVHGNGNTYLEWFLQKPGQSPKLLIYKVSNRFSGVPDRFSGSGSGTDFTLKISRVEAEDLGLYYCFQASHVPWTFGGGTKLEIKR
OD450 nm: 1.88 OD450
//
BINDER: F2.92.1 human-murine chimeric antibody (antibody, human IgG1, kappa, V domains shown) VH: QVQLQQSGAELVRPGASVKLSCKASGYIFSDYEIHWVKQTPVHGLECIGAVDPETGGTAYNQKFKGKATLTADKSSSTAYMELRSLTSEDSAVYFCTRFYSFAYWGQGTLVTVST VL: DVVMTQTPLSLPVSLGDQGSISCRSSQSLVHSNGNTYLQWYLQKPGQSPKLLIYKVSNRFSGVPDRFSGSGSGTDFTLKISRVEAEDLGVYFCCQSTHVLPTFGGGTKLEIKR
OD450 nm: 2.45 OD450
//
BINDER: F1.111.11 human-murine chimeric antibody (antibody, human IgG1, kappa, V domains shown) VH: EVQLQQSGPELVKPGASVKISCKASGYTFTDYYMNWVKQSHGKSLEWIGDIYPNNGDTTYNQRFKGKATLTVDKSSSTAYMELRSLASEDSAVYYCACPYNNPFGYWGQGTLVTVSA VL: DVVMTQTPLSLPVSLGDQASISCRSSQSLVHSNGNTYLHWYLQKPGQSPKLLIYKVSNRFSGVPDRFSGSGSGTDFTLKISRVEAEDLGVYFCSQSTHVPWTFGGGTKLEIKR
OD450 nm: 2.7 OD450
